The reported measurements were obtained from PubChem BioAssay (NCI).

Test system: OVCAR-3 ovarian
MEASUREMENT_DESCRIPTION: NCI tumour cell line growth inhibition, 48 h
Kindly supply the reported TGI values for the records listed here.
Quick note: give the figure in µM, leave out the unit.

Prompt: Bench note: what TGI did NCC(=O)NS(=O)(=O)OC[C@H]1O[C@@H](n2cnc3c(N)ncnc32)[C@H](O)[C@@H]1O show?
Completion: 4.48

Prompt: Bench note: what TGI did CCN(CC)CCc1c2c(nc3ccccc13)C(=O)c1cccnc1C2=O show?
Completion: 5.8

Prompt: Bench note: what TGI did CN1CCN(Cc2ccc(NC(=O)c3cncc(C#Cc4cnc(N)c5ccc(C#N)cc45)c3)cc2C(F)(F)F)CC1 show?
Completion: 1.45

Prompt: Bench note: what TGI did Cc1ccc(CS/C(=C\c2ccc([N+](=O)[O-])cc2)C(=O)c2ccc(F)cc2)cc1 show?
Completion: 4.02
